System: LXRa:RXRa (NR concentration 270 nM, RXRa partner concentration 90 nM)
method.summary: PBM binding z-score (relative to random genomic background probes); higher = stronger binding; sequences stand for … in GC…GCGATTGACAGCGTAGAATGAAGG
property: PBM binding z-score
Lab note: jot the number down without any unit.

Example sequences with recorded PBM binding z-score:
chain.sequence: AGAATGAGGTTACCAAAGATCAGGGACACGCTTG
observed.result: 6.38
--
chain.sequence: CTCGAAAGGTCGGTTGAGGTGAGTATTCGGATAA
observed.result: 1.75
--
chain.sequence: TTACCAAGGTGAAAGTCGTTGATCCCTCTGTAGA
observed.result: 0.757
--
chain.sequence: CGAACTAGGCCAGAACAGGACAGTGAAGGATGAT
observed.result: -0.433
--
chain.sequence: CGTCAAAGTTCAACTAAAGTAACGTAAAGCACGC
observed.result: 6.26
--
chain.sequence: CGAACCAGGGCATGAGTTGATAGCAAATGCCGAT
observed.result: -0.00251

QUERY: Consider the sequence shown here: CCTGCTAGATCATGGTCAGCTAATCTACAGTATG What is its recorded PBM binding z-score?
RESULT: -0.678

QUERY: Recorded PBM binding z-score for TCGAGTAGGTTACAAATGGGGCATTCAGCTTTCT , please?
RESULT: 1.08

QUERY: Which PBM binding z-score reading was recorded for the sequence GCATATAGGTAATACAGGGTGAAAGTCCGATTGT ?
RESULT: 0.746

QUERY: Which PBM binding z-score is reported for this sequence? TCATATAGGTAAACATGTGAAAGTCCGTAAGTTA
RESULT: 0.742

QUERY: Which PBM binding z-score is reported for this sequence? GCTAGCAGCCCATTTGGGTCACTCAATGACGGGC
RESULT: -0.586
